Molecular target: T1, cCEACAM5, M. fascicularis CEACAM5 ECD (35-688) (Macaca fascicularis)
T1 construct: ECD followed by a 24 amino acid extension containing a His-Tag; also called cynomolgus CEACAM5; monkey CEACAM5
T1 chain: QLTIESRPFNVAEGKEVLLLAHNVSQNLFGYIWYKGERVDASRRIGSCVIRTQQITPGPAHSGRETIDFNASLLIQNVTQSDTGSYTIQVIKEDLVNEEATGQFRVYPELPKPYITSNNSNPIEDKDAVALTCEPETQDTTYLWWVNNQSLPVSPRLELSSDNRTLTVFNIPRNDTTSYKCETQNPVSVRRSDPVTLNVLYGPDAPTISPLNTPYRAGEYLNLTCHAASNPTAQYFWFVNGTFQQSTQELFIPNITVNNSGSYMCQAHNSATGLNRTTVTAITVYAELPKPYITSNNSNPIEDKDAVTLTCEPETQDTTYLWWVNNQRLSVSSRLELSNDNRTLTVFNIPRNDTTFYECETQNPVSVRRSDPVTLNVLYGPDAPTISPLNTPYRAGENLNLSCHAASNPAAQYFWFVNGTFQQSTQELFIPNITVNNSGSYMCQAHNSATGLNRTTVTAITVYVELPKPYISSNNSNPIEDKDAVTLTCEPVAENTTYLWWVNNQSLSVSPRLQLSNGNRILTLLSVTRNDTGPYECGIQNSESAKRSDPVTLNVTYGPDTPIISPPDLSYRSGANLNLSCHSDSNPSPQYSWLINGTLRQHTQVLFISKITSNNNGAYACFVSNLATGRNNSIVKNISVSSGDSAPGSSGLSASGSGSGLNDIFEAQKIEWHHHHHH
Experiment: SPR (BIAcore 2000), mAb captured by anti-human Fc, antigen injected 1-500 nM
Procedure: The binding kinetics of humanized anti-CEACAM5_MAb2 variants, compared with chimeric MAb2, to recombinant human CEACAM5 (hCEACAM5) and cynomolgus monkey CEACAM5 (cCEACAM5) were determined by surface plasmon resonance assay using a BlAcore 2000 (BlAcore Inc., Uppsala, N.J.). Briefly, a CM5 BlAcore biosensor chip was docked into the instrument and activated with 70 μL of 1:1 NHS/EDC at room temperature. […] Individual sensorgrams were analyzed using BlAevaluation software.
parameter: pKd
pKd is a log-scale quantity: -log10 of the concentration expressed in molar.

The recorded pKd for entry huMAb2-1 (antibody, V domains shown, Humanized MAb2 (VL1 + VH1) fused to human IgG1 and human Ckappa constant domains; also called MAb2_VL1VH1-IgG1; MAb2VL1VH1-IgG1) VH: EVQLQESGPGLVKPGGSLSLSCAASGFVFSSYDMSWVRQTPERRLEWVAYISSGGGITYFPSTVKGRFTVSRDNAKNTLYLQMNSLTSEDTAIYYCAAHYFGSSGPFAYWGQGTLVTVSA VL: DIQMTQSPASLSASVGDTVTITCRASENIFSYLAWYQQKPGKSPKLLVYNTKTLAEGVPSRFSGSGSGTQFSLTISSLQPEDFGSYYCQHHYGTPFTFGSGTKLEIK equals 7.38
